molecular target: Human immunodeficiency virus type 1 protease (Human immunodeficiency virus 1, UniProt Q72874)
pIC50: −log10 of the molar value.
EXPERIMENTAL_READOUT: pIC50

MOL	EXPERIMENTAL_READOUT	RESULT_NUMBER
Nc1ccc(S(=O)(=O)N(C[C@@H](O)[C@H](Cc2ccccc2)NCC(=O)N2CCOCC2)C2CC2)cc1	pIC50	5.94
O=C(N[C@@H](Cc1ccccc1)[C@H](O)CN(C1CC1)S(=O)(=O)c1ccc([N+](=O)[O-])cc1)OCCN1CCOCC1	pIC50	7.10

[P] O=C(N[C@@H](Cc1ccccc1)[C@H](O)CN(C1CC1)S(=O)(=O)c1ccc([N+](=O)[O-])cc1)N1CCOCC1
[Q] O=C(N[C@@H](Cc1ccccc1)[C@H](O)CN(C1CC1)S(=O)(=O)c1ccc(C(F)(F)F)cc1)N1CCOCC1
Between P and Q , whose recorded pIC50 is greater? Reply briefly: the label of your chosen item. Q
(Q: 7.33, P: 6.10)

* * *

molecular target: Human immunodeficiency virus type 1 protease (Human immunodeficiency virus 1)
EXPERIMENTAL_READOUT: IC50 (nM)

[A] O=[N+]([O-])c1ccc(S(=O)(=O)N(C[C@@H](O)[C@H](Cc2ccccc2)NCCN2CCOCC2)C2CC2)cc1
[B] COc1ccc(S(=O)(=O)N(C[C@@H](O)[C@H](Cc2ccccc2)NC(=O)CN2CCOCC2)C2CC2)cc1
Between A and B , whose recorded IC50 is greater? Reply briefly: the label of your chosen item. B

* * *

Entries with reported IC50 on Human immunodeficiency virus type 1 protease (Human immunodeficiency virus 1)
EXPERIMENTAL_READOUT: IC50 (nM)

Answered cases to consult:
MOL	RESULT_NUMBER
O=C(CN[C@@H](Cc1ccccc1)[C@H](O)CN(C1CC1)S(=O)(=O)c1ccc(C(F)(F)F)cc1)N1CCOCC1	1260
COc1ccc(S(=O)(=O)N(C[C@@H](O)[C@H](Cc2ccccc2)NC(=O)CN2CCO[C@@H](C)C2)C2CC2)cc1	1270

[P] C[C@@H]1CN(CC(=O)N[C@@H](Cc2ccccc2)[C@H](O)CN(C2CC2)S(=O)(=O)c2ccc(N)cc2)CCO1
[Q] COc1ccc(S(=O)(=O)N(C[C@@H](O)[C@H](Cc2ccccc2)NC(=O)CN2CCO[C@H](C)C2)C2CC2)cc1
Between P and Q , whose recorded IC50 is greater? Reply briefly: the label of your chosen item. P
(P: 1530 nM, Q: 190 nM)

* * *

Entries with reported IC50 on Human immunodeficiency virus type 1 protease (Human immunodeficiency virus 1)
EXPERIMENTAL_READOUT: IC50 (nM)

Answered cases to consult:
MOL	UNIT_NAME	IC50
O=S(=O)(c1ccc(C(F)(F)F)cc1)N(C[C@@H](O)[C@H](Cc1ccccc1)NCCN1CCOCC1)C1CC1	nM	1690
Nc1ccc(S(=O)(=O)N(C[C@@H](O)[C@H](Cc2ccccc2)NC(=O)OCCN2CCOCC2)C2CC2)cc1	nM	61
C[C@H]1CN(CC(=O)N[C@@H](Cc2ccccc2)[C@H](O)CN(C2CC2)S(=O)(=O)c2ccc(N)cc2)CCO1	nM	1340
O=C(N[C@@H](Cc1ccccc1)[C@H](O)CN(C1CC1)S(=O)(=O)c1ccc(C(F)(F)F)cc1)OCCN1CCOCC1	nM	120
O=C(CN1CCOCC1)N[C@@H](Cc1ccccc1)[C@H](O)CN(C1CC1)S(=O)(=O)c1ccc(C(F)(F)F)cc1	nM	400

[1] C[C@@H]1CN(CC(=O)N[C@@H](Cc2ccccc2)[C@H](O)CN(C2CC2)S(=O)(=O)c2ccc([N+](=O)[O-])cc2)CCO1
[2] C[C@@H]1CN(CC(=O)N[C@@H](Cc2ccccc2)[C@H](O)CN(C2CC2)S(=O)(=O)c2ccc(C(F)(F)F)cc2)CCO1
Please compare: 1 and 2 . Report which one has the smaller IC50 value. Reply briefly: the label of your chosen item. 1
(1: 930 nM, 2: 2990 nM)
